The reported numbers originate from patent US11253516B2.

Target: FLT3(ITD, D835V) (Homo sapiens, UniProt P36888, D835V/ITD)
Experiment: KINOMEscan binding, FLT3(ITD, D835V)
pKd: −log10 of the molar value.
measurementName: pKd

1) COc1cc(N2CCC(N(C)C)CC2)ccc1Nc1ncc(Cl)c(Nc2ccccc2NS(C)(=O)=O)n1 [Example 11] : 9.80
2) COc1cc(N2CCC(N3CCN(C)CC3)CC2)ccc1Nc1ncc(Cl)c(Nc2ccccc2NS(C)(=O)=O)n1 [Example 10] : 9.49

---

Molecular target: FLT4 (Homo sapiens (Human), UniProt P35916)
Sequence (P35916 25-1363): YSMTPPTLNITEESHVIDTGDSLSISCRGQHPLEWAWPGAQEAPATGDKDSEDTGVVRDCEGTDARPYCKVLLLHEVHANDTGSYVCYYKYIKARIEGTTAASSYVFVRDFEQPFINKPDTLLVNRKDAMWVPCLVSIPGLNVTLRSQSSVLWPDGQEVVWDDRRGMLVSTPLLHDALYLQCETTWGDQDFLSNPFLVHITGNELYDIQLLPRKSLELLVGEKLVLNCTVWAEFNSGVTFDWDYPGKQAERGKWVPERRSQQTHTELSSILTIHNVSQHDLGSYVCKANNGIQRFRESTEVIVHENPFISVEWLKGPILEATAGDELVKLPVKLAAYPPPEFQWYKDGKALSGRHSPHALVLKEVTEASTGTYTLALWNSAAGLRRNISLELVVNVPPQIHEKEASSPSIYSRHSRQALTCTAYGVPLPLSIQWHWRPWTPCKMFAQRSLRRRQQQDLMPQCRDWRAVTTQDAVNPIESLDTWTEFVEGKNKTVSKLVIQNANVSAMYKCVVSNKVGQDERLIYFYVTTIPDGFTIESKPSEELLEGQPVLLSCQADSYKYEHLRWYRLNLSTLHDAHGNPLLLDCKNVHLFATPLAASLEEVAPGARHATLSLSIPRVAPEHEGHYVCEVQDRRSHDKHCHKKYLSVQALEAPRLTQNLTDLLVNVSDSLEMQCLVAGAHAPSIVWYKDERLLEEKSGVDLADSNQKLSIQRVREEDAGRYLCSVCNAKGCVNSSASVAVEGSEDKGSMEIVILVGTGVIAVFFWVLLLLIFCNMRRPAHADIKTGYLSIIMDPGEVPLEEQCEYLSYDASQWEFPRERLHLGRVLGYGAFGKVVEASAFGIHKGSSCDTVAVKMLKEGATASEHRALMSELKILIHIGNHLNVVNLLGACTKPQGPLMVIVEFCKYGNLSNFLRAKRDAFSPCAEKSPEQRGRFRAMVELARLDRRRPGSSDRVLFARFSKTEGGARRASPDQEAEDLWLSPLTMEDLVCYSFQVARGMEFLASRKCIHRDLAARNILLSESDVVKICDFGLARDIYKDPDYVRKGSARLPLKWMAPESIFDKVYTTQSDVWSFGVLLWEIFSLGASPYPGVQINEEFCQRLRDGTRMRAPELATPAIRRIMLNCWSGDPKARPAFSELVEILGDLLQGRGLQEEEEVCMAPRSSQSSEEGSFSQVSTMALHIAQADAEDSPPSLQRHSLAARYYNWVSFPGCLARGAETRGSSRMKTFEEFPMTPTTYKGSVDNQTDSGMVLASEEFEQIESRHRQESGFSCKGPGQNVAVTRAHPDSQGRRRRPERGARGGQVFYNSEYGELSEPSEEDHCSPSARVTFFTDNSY
measurementName: Kd

1. COc1cc(N2CCC(N3CCN(C)CC3)CC2)ccc1Nc1ncc(Cl)c(Nc2ccccc2NS(C)(=O)=O)n1 : 200 nM
